src = ChEMBL document CHEMBL1201862

# Tested on: SK-MEL-28
# test-method-notes: NCI tumour cell line growth inhibition, 48 h
Activity calls are given as the source filed them. Rule as the data show it: active = GI50 up to about 1.1 µM and inactive = higher.
Response enum: Yes (active), No (inactive)

Recorded test outcome, item Cc1c(N)nc(C(CC(N)=O)NCC(N)C(N)=O)nc1C(=O)NC(C(=O)NC(C)C(O)C(C)C(=O)NC(C(=O)NCCc1nc(-c2nc(C(=O)NCCCNC(C)c3ccccc3)cs2)cs1)C(C)O)C(OC1OC(CO)C(O)C(O)C1OC1OC(CO)C(O)C(OC(N)=O)C1O)c1c[nH]cn1 (stereo not drawn) No

How did this test come out for O=C1c2ccccc2C(=O)c2c(NCCNC(=O)C3CCCN3)ccc(NCCNC(=O)C3CCCN3)c21 (stereo not drawn) ? No

Lab log entry: CN(C)c1ccc(/C=c2\sc3nc4ccccc4n3c2=O)cc1 — outcome as called in the assay? No

Hello, I am checking results. What call was entered for O=P1(Oc2ccc(Cl)cc2)OCCS1 (stereo not drawn) ? No

Outcome? CC1[C@@]2(CCC(C)(C)O2)O[C@@H]2C=C3C4CCC5Cc6nc7c(nc6C[C@@]5(C)C4C[C@H](O)[C@@]3(C)[C@]12O)CC1CCC2C3=C[C@H]4O[C@@]5(O[C@@](C)(CO)C[C@@H]5O)C(C)[C@@]4(O)[C@]3(C)[C@@H](O)CC2[C@]1(C)C7 (stereo partly drawn) Yes

Entry O=C(O)CCC(=O)OC1N=C(c2ccccc2Cl)c2cc([N+](=O)[O-])ccc2NC1=O (stereo not drawn) : call = ? No

I would be grateful if you could indicate the recorded call for N=C1N(/N=C/c2ccccn2)/C(=N\c2ccccc2)C(=S)N1c1ccccc1 . No

Identify the outcome logged in this assay for the compound shown: CC(C)C1OC(=O)/C=C/C=C/C=C/C=C/C=C/CC(O)C(C)C(O)CC(O)CC(O)CC(O)CC(O)CC(O)CC(O)/C=C/C1C (stereo not drawn) No

In this assay, the call recorded for Clc1cccc(-c2nc3cccc4c3n2Cc2ncccc2-4)c1 was what? No

Call for entry CC1(C)CCCCCCCCCC2CC2CCC(C)(C)C1=O (stereo not drawn) : No

// return assay outcome for COP(=O)(OC)C(O)/C=C/c1ccco1 (stereo not drawn) No

Any idea what this test logged for Cc1c2ccncc2c(C)c2c1[nH]c1ccc(OCC(F)(F)F)cc12 ? No

Name the outcome recorded for O=C(O)C1OC1C(=O)O (stereo not drawn) in the assay. No

# lookup: test call for CCN1/C(=C/C#C/C(C)=C\c2sc3ccccc3[n+]2CC)Sc2ccccc21 No

Which result was noted for this compound in the test: Cn1c2ccc(Cl)cc2c2ccc3c(c21)C(=O)C=CC3=O No

What classification did CCOC(=O)N1CCN(c2c(C)nc(C)nc2O)CC1 end up with in this test? No

Field: outcome | Entry: O=C(CC(C(=O)c1ccco1)c1ccsc1)c1ccco1 (stereo not drawn) No

Field: outcome | Entry: COC(=O)C1CC23C4=C(CCC41)CCC1CN4CC(C)C(CC(OC(C)=O)C12COC(C)=O)C43O (stereo not drawn) No
